- Measured On: 5-hydroxytryptamine receptor 4 (Rattus norvegicus)
- Sequence (Q62758 whole entry): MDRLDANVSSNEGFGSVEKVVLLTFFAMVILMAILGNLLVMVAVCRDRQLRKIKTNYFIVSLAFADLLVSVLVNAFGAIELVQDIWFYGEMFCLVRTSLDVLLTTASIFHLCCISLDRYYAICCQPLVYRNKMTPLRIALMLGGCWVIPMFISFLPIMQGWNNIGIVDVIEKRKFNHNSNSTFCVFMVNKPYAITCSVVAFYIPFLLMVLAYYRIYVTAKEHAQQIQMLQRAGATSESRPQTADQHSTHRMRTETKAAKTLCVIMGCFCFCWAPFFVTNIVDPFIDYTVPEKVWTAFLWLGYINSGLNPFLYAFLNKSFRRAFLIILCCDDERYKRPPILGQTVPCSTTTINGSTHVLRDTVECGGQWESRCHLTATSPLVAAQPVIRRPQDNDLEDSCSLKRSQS
- Experimental Details: In vitro binding affinity to 5-hydroxytryptamine 4 receptor in rat striatum membrane
- Type: cell membranes
Definition: the class of an entry is the range in low interval = under 2 nM, middle interval = from 2 nM up to 30 nM, high interval = 30 nM and over that contains its Ki.

Recorded results for 5 molecules are shown here.
Smiles Notation: CCN1CCC(NC(=O)c2cccc3[nH]cnc23)CC1
Qualitative Label: high interval
--
Smiles Notation: CS(=O)(=O)NCCN1CCC(CNC(=O)c2cccc3[nH]cnc23)CC1
Qualitative Label: middle interval
--
Smiles Notation: CCCCN1CCC(CNC(=O)c2cc(Br)c(N)c3nc[nH]c23)CC1
Qualitative Label: middle interval
--
Smiles Notation: CCCCCN1CCC(CNC(=O)c2cc(Cl)cc3[nH]cnc23)CC1
Qualitative Label: low interval
--
Smiles Notation: CCCCN1CCC(CNC(=O)c2cccc3[nH]cnc23)CC1
Qualitative Label: middle interval

Query :: Note: place this molecule into its band. Item: CC(C)CN1CCC(CNC(=O)c2cc(Cl)cc3c2ncn3C)CC1
Result :: middle interval

Query :: The entry to classify is CCCCN1CCC(CNC(=O)c2cc(Cl)c([N+](=O)[O-])c3nc[nH]c23)CC1 ; which class holds it?
Result :: high interval

Query :: Which class is correct for the following molecule? CCCCN1CCC(NC(=O)c2cccc3nc[nH]c23)CC1
Result :: high interval

Query :: Classify this molecule: CCCCN1CCC(COC(=O)c2cc(Cl)cc3[nH]cnc23)CC1
Result :: middle interval

Query :: Which class does CCCCN1CCC(CNC(=O)c2cc(Br)c([N+](=O)[O-])c3[nH]cnc23)CC1 fall in?
Result :: high interval

Query :: Class for CCCCN1CCC(CNC(=O)c2cc(Cl)cc3[nH]cnc23)CC1 ?
Result :: low interval
